Source listed as the Immune Epitope Database (IEDB).

system: HLA-A*30:01
procedure details: IEDB peptide-MHC binding, purified MHC/competitive/fluorescence; filed as Kd, often an IC50 or EC50 that approximates it; bounds were set here for any values at or beyond the usual limits of such assays
protocol conditions: source organism: Vibrio vulnificus YJ016
endpoint label: Kd (µM)
Answers are plain numbers, in µM.

Entry LLRRRPYPL , system HLA-A*30:01: what Kd was measured?
0.441

* * *

system: HLA-A*26:01
procedure details: IEDB peptide-MHC binding, purified MHC/direct/fluorescence; filed as Kd, often an IC50 or EC50 that approximates it; bounds were set here for any values at or beyond the usual limits of such assays
protocol conditions: source organism: Corynebacterium efficiens
pKd: −log10 of the molar value.
endpoint label: pKd

pKd lookup needed for ITWETPMIW , thanks.
≤ 4.70

* * *

system: HLA-A*68:01
procedure details: IEDB peptide-MHC binding, purified MHC/competitive/radioactivity; filed as Kd, often an IC50 or EC50 that approximates it; bounds were set here for any values at or beyond the usual limits of such assays
protocol conditions: source organism: Vaccinia virus Copenhagen
endpoint label: Kd (µM)
Answers are plain numbers, in µM.

Entry KQMYRKFSR , system HLA-A*68:01: what Kd was measured?
1.21

* * *

system: HLA-A*02:19
procedure details: IEDB peptide-MHC binding, purified MHC/competitive/fluorescence; filed as Kd, often an IC50 or EC50 that approximates it; bounds were set here for any values at or beyond the usual limits of such assays
protocol conditions: source organism: Entamoeba histolytica HM-1:IMSS
pKd: −log10 of the molar value.
endpoint label: pKd

pKd lookup needed for KTRMEDYYL , thanks.
≤ 4.70

* * *

system: HLA-C*07:02
procedure details: IEDB peptide-MHC binding, purified MHC/direct/fluorescence; filed as Kd, often an IC50 or EC50 that approximates it; bounds were set here for any values at or beyond the usual limits of such assays
protocol conditions: source organism: Coxiella burnetii RSA 493
endpoint label: pKd
Give bare numbers, as −log10 of the molar value.

pKd lookup needed for YRATYSMAL , thanks.
7.10

* * *

system: HLA-A*69:01
procedure details: IEDB peptide-MHC binding, purified MHC/direct/fluorescence; filed as Kd, often an IC50 or EC50 that approximates it; bounds were set here for any values at or beyond the usual limits of such assays
protocol conditions: source organism: Rickettsia prowazekii
endpoint label: Kd

Entry NLKLYGAEF , system HLA-A*69:01: what Kd was measured?
≥ 20 µM

* * *

system: HLA-A*24:02
procedure details: IEDB peptide-MHC binding, purified MHC/competitive/radioactivity; filed as Kd, often an IC50 or EC50 that approximates it; bounds were set here for any values at or beyond the usual limits of such assays
protocol conditions: source organism: SARS coronavirus Tor2
For each record, write down the corresponding Kd.
Numbers only, in nM.

For each of the sequences below, state Kd.
1. FFASFYYIW
2. LFTKFFYLL
3. YYCKSHKPPI
4. VFNNYMPYVF

[20.9, 110, 193, 11.2]

* * *

system: HLA-B*15:17
procedure details: IEDB peptide-MHC binding, purified MHC/direct/fluorescence; filed as Kd, often an IC50 or EC50 that approximates it; bounds were set here for any values at or beyond the usual limits of such assays
protocol conditions: source organism: Yellow fever virus 1899/81
endpoint label: Kd (nM)
Give bare numbers, in nM.

Kd lookup needed for KTWGKNLVF , thanks.
1.7

* * *

system: HLA-A*31:01
procedure details: IEDB peptide-MHC binding, purified MHC/direct/fluorescence; filed as Kd, often an IC50 or EC50 that approximates it; bounds were set here for any values at or beyond the usual limits of such assays
protocol conditions: source organism: Vibrio parahaemolyticus
endpoint label: Kd

Kd lookup needed for YPKCDLVEL , thanks.
≥ 20 µM

* * *

system: HLA-B*51:01
procedure details: IEDB peptide-MHC binding, purified MHC/competitive/radioactivity; filed as Kd, often an IC50 or EC50 that approximates it; bounds were set here for any values at or beyond the usual limits of such assays
protocol conditions: source organism: Dengue virus 3 Martinique/1243/1999
endpoint label: Kd (µM)
Answers are plain numbers, in µM.

# count of solved cases: 3
[[record]]
sequence_record = "WPLNEGVMAV"
measured_value = 1.67

[[record]]
sequence_record = "FPYSIPATL"
measured_value = 0.089

[[record]]
sequence_record = "LPIRYQTTA"
measured_value = 15.9


Okay, now this sequence:
Kd lookup needed for TPVTTWENV , thanks.
12.9

* * *

system: HLA-A*02:06
procedure details: IEDB peptide-MHC binding, purified MHC/competitive/fluorescence; filed as Kd, often an IC50 or EC50 that approximates it; bounds were set here for any values at or beyond the usual limits of such assays
protocol conditions: source organism: Mycobacterium tuberculosis C
endpoint label: Kd (nM)
Give bare numbers, in nM.

Kd lookup needed for ALFDRPAFK , thanks.
325

* * *

system: HLA-A*02:17
procedure details: IEDB peptide-MHC binding, purified MHC/competitive/radioactivity; filed as Kd, often an IC50 or EC50 that approximates it; bounds were set here for any values at or beyond the usual limits of such assays
protocol conditions: source organism: Dengue virus 4 Philippines/H241/1956
endpoint label: pKd
One number for each entry, as −log10 of the molar value.

# count of solved cases: 2
[[record]]
sequence_record = "MVIGMAMTTV"
measured_value = 6.88

[[record]]
sequence_record = "KLLTKPWDV"
measured_value = 6.42


Okay, now this sequence:
pKd lookup needed for TMTLWYMWQV , thanks.
6.36

* * *

system: HLA-A*01:01
procedure details: IEDB peptide-MHC binding, purified MHC/competitive/radioactivity; filed as Kd, often an IC50 or EC50 that approximates it; bounds were set here for any values at or beyond the usual limits of such assays
protocol conditions: source organism: Mammarenavirus lassaense
endpoint label: Kd

Kd lookup needed for HDLMMGYAWI , thanks.
≥ 51 µM

* * *

system: HLA-A*33:01
procedure details: IEDB peptide-MHC binding, purified MHC/competitive/radioactivity; filed as Kd, often an IC50 or EC50 that approximates it; bounds were set here for any values at or beyond the usual limits of such assays
protocol conditions: source organism: Mammarenavirus machupoense
endpoint label: Kd
Please answer using the number first and the unit second.

Kd lookup needed for SSFDYCSTNH , thanks.
15.6 µM

* * *

system: HLA-B*40:01
procedure details: IEDB peptide-MHC binding, purified MHC/direct/fluorescence; filed as Kd, often an IC50 or EC50 that approximates it; bounds were set here for any values at or beyond the usual limits of such assays
protocol conditions: source organism: Bacillus anthracis
pKd: −log10 of the molar value.
endpoint label: pKd

[[record]]
sequence_record = "WFREDRSPV"
measured_value = "≤ 4.70"


Okay, now this sequence:
Entry MSDIFASEV , system HLA-B*40:01: what pKd was measured?
≤ 4.70

* * *

system: HLA-A*02:16
procedure details: IEDB peptide-MHC binding, purified MHC/competitive/fluorescence; filed as Kd, often an IC50 or EC50 that approximates it; bounds were set here for any values at or beyond the usual limits of such assays
protocol conditions: source organism: Entamoeba histolytica
endpoint label: Kd

Kd lookup needed for RASHFRKLF , thanks.
≥ 20 µM

* * *

For each record, write down the corresponding pKd.
system: HLA-B*44:02
procedure details: IEDB peptide-MHC binding, purified MHC/competitive/radioactivity; filed as Kd, often an IC50 or EC50 that approximates it; bounds were set here for any values at or beyond the usual limits of such assays
protocol conditions: source organism: Dengue virus 3 Martinique/1243/1999
Numbers only, as −log10 of the molar value.

[[record]]
sequence_record = "NERGKSLLF"
system = "HLA-B*44:02"
measured_value = 6.33


Entry KEEHNSTWHY , system HLA-B*44:02: what pKd was measured?
6.74

* * *

system: HLA-B*15:17
procedure details: IEDB peptide-MHC binding, purified MHC/competitive/fluorescence; filed as Kd, often an IC50 or EC50 that approximates it; bounds were set here for any values at or beyond the usual limits of such assays
protocol conditions: source organism: Human immunodeficiency virus 1
endpoint label: Kd

Kd lookup needed for KSLFNTIAVLY , thanks.
21.3 nM

* * *

system: HLA-A*02:01
procedure details: IEDB peptide-MHC binding, purified MHC/direct/fluorescence; filed as Kd, often an IC50 or EC50 that approximates it; bounds were set here for any values at or beyond the usual limits of such assays
protocol conditions: source organism: Vibrio vulnificus
endpoint label: pKd
Numbers only, as −log10 of the molar value.

pKd lookup needed for SAWESFWRI , thanks.
7.89

* * *

For each record, write down the corresponding Kd.
system: HLA-A*01:01
procedure details: IEDB peptide-MHC binding, purified MHC/competitive/radioactivity; filed as Kd, often an IC50 or EC50 that approximates it; bounds were set here for any values at or beyond the usual limits of such assays
protocol conditions: source organism: SARS coronavirus Tor2
Numbers only, in nM.

# count of solved cases: 3
[[record]]
sequence_record = "KTSVDCNMY"
endpoint_label = "Kd"
measured_value = 98.6

[[record]]
sequence_record = "LTGHMLDMY"
endpoint_label = "Kd"
measured_value = 0.563

[[record]]
sequence_record = "TSTGNYNYKY"
endpoint_label = "Kd"
measured_value = 96.5


Okay, now this sequence:
Kd lookup needed for NAAISDYDYY , thanks.
12.4
